Tested on: UniProt:P08253
Sequence (P08253 whole entry): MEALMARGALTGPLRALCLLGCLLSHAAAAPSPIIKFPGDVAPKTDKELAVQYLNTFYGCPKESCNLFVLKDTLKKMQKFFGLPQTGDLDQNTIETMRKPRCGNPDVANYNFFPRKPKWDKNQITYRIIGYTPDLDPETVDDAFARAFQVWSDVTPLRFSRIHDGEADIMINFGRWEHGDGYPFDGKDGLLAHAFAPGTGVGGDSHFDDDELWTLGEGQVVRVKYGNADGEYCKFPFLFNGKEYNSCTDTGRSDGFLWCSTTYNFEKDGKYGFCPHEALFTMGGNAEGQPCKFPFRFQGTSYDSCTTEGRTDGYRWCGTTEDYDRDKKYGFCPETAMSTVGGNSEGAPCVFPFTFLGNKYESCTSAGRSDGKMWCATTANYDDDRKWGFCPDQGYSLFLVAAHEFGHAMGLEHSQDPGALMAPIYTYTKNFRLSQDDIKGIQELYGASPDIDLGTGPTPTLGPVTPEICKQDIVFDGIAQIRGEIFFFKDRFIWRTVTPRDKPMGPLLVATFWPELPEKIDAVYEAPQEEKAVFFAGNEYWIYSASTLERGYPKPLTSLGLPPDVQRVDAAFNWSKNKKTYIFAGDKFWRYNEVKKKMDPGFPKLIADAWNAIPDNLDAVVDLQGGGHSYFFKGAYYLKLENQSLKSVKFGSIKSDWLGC
Protocol notes: Dose Response validation of uHTS RPN11 inhibitor hits using a MMP-2 Fluorescence assay.
Type: functional
Calls of active or inactive are those of the source.
Choose the fitting class; nothing outside true (1) for active, false (0) for inactive is accepted.

Which result was noted for this compound in the test: `COc1cccc(-c2nn(-c3ccccc3)cc2/C=C(\C#N)C(=O)NCCCn2ccnc2)c1` false (0)

Moving on to the next compound: `Cc1nc(SCc2nc3cc(Cl)c(F)cc3[nH]2)c2oc3ccccc3c2n1` false (0)

Moving on to the next compound: NS(=O)(=O)c1cc(C(=O)NC2CCSc3ccccc32)ccc1Cl (centres undefined) true (1)

Moving on to the next compound: `CCOC(=O)c1c(C)[nH]c(C(=O)OCC(=O)N(CC(C)C)c2c(N)n(Cc3ccccc3)c(=O)[nH]c2=O)c1C` false (0)

====

Tested on: Kappa-type opioid receptor (Homo sapiens)
Sequence (P41145 whole entry): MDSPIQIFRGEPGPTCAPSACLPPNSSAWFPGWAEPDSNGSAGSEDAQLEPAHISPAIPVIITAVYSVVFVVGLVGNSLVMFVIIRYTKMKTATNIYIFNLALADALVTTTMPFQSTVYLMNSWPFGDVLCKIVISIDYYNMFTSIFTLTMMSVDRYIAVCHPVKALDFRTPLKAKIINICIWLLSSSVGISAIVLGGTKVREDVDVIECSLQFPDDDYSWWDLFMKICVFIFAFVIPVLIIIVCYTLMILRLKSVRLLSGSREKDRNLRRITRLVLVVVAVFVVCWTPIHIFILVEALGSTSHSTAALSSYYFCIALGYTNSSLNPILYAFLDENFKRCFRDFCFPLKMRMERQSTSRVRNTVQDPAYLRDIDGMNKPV
Type: functional
Value type: EC50 (µM)
Write it as a number; the unit µM goes unstated.

Fill in: EC50 of `CCCCN(Cc1cc2cc(C)ccc2[nH]c1=O)C(=O)c1ccccn1` is ___ 4.84

====

I'd appreciate it if you could supply AC50 values for the items below.
Tested on: Paired box protein Pax-8 (Homo sapiens, UniProt Q06710)
Sequence (Q06710 whole entry): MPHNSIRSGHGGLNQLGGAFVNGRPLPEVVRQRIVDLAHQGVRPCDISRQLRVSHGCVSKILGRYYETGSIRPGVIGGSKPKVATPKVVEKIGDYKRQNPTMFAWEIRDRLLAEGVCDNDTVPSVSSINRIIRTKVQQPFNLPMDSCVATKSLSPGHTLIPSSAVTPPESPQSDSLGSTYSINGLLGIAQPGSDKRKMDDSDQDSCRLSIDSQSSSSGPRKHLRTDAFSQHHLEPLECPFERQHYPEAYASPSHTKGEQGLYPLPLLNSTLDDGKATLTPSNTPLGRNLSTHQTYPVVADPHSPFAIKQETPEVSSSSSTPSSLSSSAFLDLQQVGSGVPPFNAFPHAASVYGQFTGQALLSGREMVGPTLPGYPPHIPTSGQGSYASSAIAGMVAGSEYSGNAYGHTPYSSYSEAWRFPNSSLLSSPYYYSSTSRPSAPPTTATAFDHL
Protocol notes: PAX8 transcriptional activity inhibition in RMG-I – RMG-I cells, luciferase, cherry-pick, dose response (AID 687027);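 note: luciferase reporter driven by Pax8 target thyroperoxidase promoter measured by SteadyGlo luminescence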
Format: functional, cell-based
The source made the active and inactive calls.

Fill in: AC50 of CC1CC(C)CC(C)C(O)C(C#N)=CC=CCC(C2CCCC2C(=O)O)OC(=O)CC(O)C(C)C1 (centres undefined) is ___ < 0.26 µM (active)

Moving on to the next compound: `O=C(CCCN1C(=O)/C(=C/c2cccc(Br)c2)SC1=S)Nc1cccnc1` 8.92 µM (active)

Moving on to the next compound: `O=c1cc(-c2ccccc2)oc2ccc3ccccc3c12` 5.9 µM (active)

Moving on to the next compound: `C[C@H]1CCCCO[C@@H](CN(C)Cc2ccc(C(F)(F)F)cc2)[C@@H](C)CN([C@@H](C)CO)C(=O)c2cc(NS(=O)(=O)c3cccs3)ccc2O1` 7.2 µM (active)

====

Tested on: Estrogen receptor (Homo sapiens, UniProt P03372);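 note: potency for inhibiting coactivator peptide recruitment to the receptor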
Sequence (P03372 whole entry): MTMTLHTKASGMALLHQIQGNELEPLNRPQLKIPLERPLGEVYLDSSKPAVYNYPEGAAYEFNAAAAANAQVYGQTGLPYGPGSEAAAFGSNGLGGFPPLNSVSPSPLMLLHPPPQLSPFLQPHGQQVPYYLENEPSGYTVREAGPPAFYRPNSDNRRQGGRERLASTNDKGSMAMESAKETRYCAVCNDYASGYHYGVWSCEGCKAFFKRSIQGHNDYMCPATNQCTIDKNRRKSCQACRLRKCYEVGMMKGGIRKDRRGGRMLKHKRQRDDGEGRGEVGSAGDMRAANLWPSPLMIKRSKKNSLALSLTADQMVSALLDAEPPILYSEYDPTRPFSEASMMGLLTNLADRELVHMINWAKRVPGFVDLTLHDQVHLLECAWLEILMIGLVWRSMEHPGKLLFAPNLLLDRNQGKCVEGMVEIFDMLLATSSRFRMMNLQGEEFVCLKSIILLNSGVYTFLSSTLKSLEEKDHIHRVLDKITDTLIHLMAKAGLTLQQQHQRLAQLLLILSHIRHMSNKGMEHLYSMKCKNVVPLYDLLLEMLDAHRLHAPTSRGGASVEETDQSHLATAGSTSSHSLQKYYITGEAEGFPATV
Activity calls are given as the source filed them.
I'd appreciate it if you could supply IC50 values for the items below.

State its IC50 on Estrogen receptor (Homo sapiens, UniProt P03372): `CCCSc1nc(C)c(-c2csc(C(C#N)=C3CCCC3)n2)cc1C#N` 9.34 µM (active)

Moving on to the next compound: `COc1ccc2c(c1)c(=O)oc1cc(OCC(=O)N3CCC(C)CC3)ccc12` 11.7 µM (active)

Moving on to the next compound: `CCOc1ccc(Nc2oc(-c3ccccc3Cl)nc2C#N)cc1` 9.54 µM (active)

Moving on to the next compound: `CCOC(=O)CSc1nn(C)c(=S)s1` 7.98 µM (active)

Moving on to the next compound: `Cn1ccnc1SCC(=O)Nc1ccc2nc(SCC(=O)NC3CC3)sc2c1` 25.7 µM (active)

// provenance: ChEMBL document CHEMBL1201862
